Listed here: items and their measured % inhibition T4 40' 10.
Target: bacteriophage T4 DNA polymerase (Enterobacteria phage T4)
Construct: made in house
Sequence (P04415 1-898): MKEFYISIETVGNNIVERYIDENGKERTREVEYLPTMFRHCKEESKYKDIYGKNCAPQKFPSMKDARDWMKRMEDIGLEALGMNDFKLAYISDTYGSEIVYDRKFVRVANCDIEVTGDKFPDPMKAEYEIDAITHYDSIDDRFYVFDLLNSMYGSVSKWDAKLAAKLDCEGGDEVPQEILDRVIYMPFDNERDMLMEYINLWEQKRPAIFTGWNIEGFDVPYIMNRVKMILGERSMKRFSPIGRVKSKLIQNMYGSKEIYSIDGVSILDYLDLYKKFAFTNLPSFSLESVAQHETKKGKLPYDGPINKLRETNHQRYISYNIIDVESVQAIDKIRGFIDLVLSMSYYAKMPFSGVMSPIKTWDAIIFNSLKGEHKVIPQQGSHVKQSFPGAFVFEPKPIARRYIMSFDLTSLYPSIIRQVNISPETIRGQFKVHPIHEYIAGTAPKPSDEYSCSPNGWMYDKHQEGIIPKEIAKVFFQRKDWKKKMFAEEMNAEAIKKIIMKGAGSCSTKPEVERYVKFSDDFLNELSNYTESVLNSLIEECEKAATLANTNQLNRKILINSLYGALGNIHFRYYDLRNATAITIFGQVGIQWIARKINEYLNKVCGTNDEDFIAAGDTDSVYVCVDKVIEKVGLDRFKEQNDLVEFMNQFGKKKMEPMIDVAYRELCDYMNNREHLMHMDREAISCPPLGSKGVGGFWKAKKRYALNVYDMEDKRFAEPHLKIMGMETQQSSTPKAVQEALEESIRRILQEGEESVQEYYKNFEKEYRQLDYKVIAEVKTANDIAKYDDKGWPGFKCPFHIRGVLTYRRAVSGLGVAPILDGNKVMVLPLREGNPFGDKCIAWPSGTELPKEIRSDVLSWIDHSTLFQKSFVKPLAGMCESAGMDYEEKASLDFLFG
Test: Counter-screen against bacteriophage T4 DNA polymerase
Assay type: biochemical
Conditions: DRC-2; read at 40'; concentration 10
measurement_kind: % inhibition T4 40' 10 (%)

# molecule, unit_name, value
records = [
    ("C#CC(C=CC)OC(=O)c1ccccc1C(=O)O (stereo not drawn)", "%", 2),
    ("N#Cc1c(O)nc(N2CCCCC2)nc1-c1ccc2c(c1)OCO2", "%", 2),
    ("COc1ccc(/C=C/c2cc(C(=O)O)c3ccccc3n2)cc1", "%", 18),
]

---

target: P. falciparum apicoplast DNA polymerase (Pf-apPOL) (Plasmodium falciparum); assay: Fluorescence-based high-throughput DNA polymerase assay (molecular beacon), primary screen and dose-response; type: biochemical; details: DRC-1; 90'; concentration 5
measurement_kind: % inhibition Apol 90' (%)

# compound, measurement_kind, unit_name, value
rows = [
    ("Cc1nn(CC(=O)NCCSCc2ccco2)c(C)c1Br [KU0267182]", "% inhibition Apol 90'", "%", 2.416),
    ("O=C1C(=Cc2ccncc2)Oc2c1ccc1c2CN(Cc2ccc3c(c2)OCO3)CO1 [KU0199357]", "% inhibition Apol 90'", "%", 17.1592),
    ("CN(C)C1C(c2ccccc2)=C(c2ccccc2)SC(c2ccccc2)C1[N+](=O)[O-] (stereo not drawn) [KU0268387]", "% inhibition Apol 90'", "%", 22.5056),
    ("Cc1ccc(NC(=O)C2CCN(C(=O)c3cc4ccsc4[nH]3)CC2)c(Br)c1 [Molecule 14]", "% inhibition Apol 90'", "%", 22),
    ("CCCCOC(=O)CCCCCN1C(=O)C(=Cc2ccc(OC)cc2)SC1=S [Molecule 75]", "% inhibition Apol 90'", "%", 7.9015),
    ("O=C1C(=Cc2ccccc2O)Oc2ccc(O)cc21 [KU0196475]", "% inhibition Apol 90'", "%", -1.611),
    ("CCSc1nnc(NC(=O)Cc2csc(NC(=O)c3cnccn3)n2)s1 [Molecule 79]", "% inhibition Apol 90'", "%", -9.701),
    ("CC1=NNC(=O)C1Oc1ccc(Cl)cc1Cl (stereo not drawn) [KU0265591]", "% inhibition Apol 90'", "%", -3.728),
    ("CC1(C)CC(=O)C2=C(C1)OC1=C(C(=O)CC(C)(C)C1)C2c1ccc(O)cc1 [KU0194226]", "% inhibition Apol 90'", "%", 6.7212),
]

---

Parameter % inhibition Apo pol 10': see the listing below.
biological target: P. falciparum apicoplast DNA polymerase (Pf-apPOL) (Plasmodium falciparum, UniProt Q8ILY1); test: Fluorescence-based high-throughput DNA polymerase assay (molecular beacon), primary screen and dose-response; assay type: biochemical; details: DRC-1; 10'; concentration 10
Sequence (Q8ILY1 entry or part of it): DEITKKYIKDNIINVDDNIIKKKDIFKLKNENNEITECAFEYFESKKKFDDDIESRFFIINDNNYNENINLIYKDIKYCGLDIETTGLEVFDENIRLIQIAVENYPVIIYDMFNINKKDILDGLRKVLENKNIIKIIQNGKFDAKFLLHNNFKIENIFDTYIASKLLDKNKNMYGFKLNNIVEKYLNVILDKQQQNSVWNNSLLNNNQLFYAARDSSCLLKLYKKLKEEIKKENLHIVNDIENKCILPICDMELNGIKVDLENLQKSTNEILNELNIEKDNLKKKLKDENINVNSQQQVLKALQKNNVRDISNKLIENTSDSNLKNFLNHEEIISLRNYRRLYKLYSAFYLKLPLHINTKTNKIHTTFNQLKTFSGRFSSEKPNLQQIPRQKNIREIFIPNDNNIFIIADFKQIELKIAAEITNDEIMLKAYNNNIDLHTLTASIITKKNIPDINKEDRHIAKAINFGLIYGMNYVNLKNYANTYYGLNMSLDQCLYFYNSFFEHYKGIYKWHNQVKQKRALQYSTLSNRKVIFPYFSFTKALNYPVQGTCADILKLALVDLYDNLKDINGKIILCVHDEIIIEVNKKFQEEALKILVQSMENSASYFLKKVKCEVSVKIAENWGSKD

# compound, % inhibition Apo pol 10', %
records = [
    ("O=C(Nc1ncc([N+](=O)[O-])s1)c1ccc2c(c1)C(=O)N(N1C(=O)c3ccccc3C1=O)C2=O", 26.4428),
    ("COc1ccc(S(=O)(=O)/N=C2\\NC(=O)/C(=C3\\C(=O)Nc4ccc([N+](=O)[O-])cc43)S2)cc1", 67.7559),
    ("O=C(c1c[nH]c2ncccc12)N1CCCC1 [Molecule 63, O=C(c1c[nH]c2c1cccn2)N1CCCC1]", 30.6254),
    ("COc1ccc(CNC(=O)Cn2nc3c(c2NC(=O)Cc2cccs2)CSC3)cc1", 43.1349),
]

---

target: P. falciparum apicoplast DNA polymerase (Pf-apPOL) (Plasmodium falciparum); assay: Fluorescence-based high-throughput DNA polymerase assay (molecular beacon), primary screen and dose-response; type: biochemical; details: DRC-2; 90'; concentration 80
We'd kindly ask you to apply these % inhibition ApPOL 90' classes: LOW: < 60%; MEDIUM: ≥ 60% and < 70%; HIGH: ≥ 70%

# compound, assigned_class
records = [
    ("CCN1C(=O)C(=Cc2cccc(OC)c2O)SC1=S [Molecule 78, CCN1C(=S)SC(=Cc2cccc(c2O)OC)C1=O]", "LOW"),
    ("O=C1CCCC2=C1C(c1ccccn1)C1=C(CCCC1=O)O2 [KU0194228]", "LOW"),
    ("Cc1nc(/N=N/c2ccc(C(=O)[O-])cc2)c(COP(=O)([O-])[O-])c(C=O)c1O.[Na+].[Na+].[Na+] [KU0261395]", "MEDIUM"),
    ("O=C1N=C(Nc2cccc(Cl)c2Cl)S/C1=C\\c1ccco1 [Molecule 3, O=C1N=C(S/C/1=C\\c1ccco1)Nc1cccc(c1Cl)Cl]", "LOW"),
    ("O=C(O)c1cccc(N2N=C(C(F)(F)F)/C(=C/c3ccc(-c4ccccc4[N+](=O)[O-])o3)C2=O)c1 [Molecule 100]", "HIGH"),
    ("CC(C)(C)c1cc(C(=O)C(C#N)=NNc2cccc(Cl)c2)no1 [Molecule 98]", "HIGH"),
    ("O=C(CSc1nnc(-c2ccco2)[nH]1)c1ccc(Cl)cc1 [KU0029065]", "LOW"),
    ("O=C1C(=Cc2ccccc2O)Oc2ccc(O)cc21 [KU0196475]", "MEDIUM"),
    ("COc1ccc(-c2c(C(F)(F)F)nn3c(=O)cc(-c4cccc([N+](=O)[O-])c4)[nH]c23)cc1 [Molecule 16]", "HIGH"),
    ("NC(=O)c1cc[n+](CC2=C(C(=O)[O-])N3C(=O)[C@@H](NC(=O)[C@@H](c4ccccc4)S(=O)(=O)[O-])[C@H]3SC2)cc1.[Na+] [Molecule 9]", "HIGH"),
    ("Nc1c(S(=O)(=O)O)cc(Nc2ccccc2)c2c1C(=O)c1ccccc1C2=O [KU0045407]", "HIGH"),
    ("Cc1ccc(C)c(CSc2nc(C3CCCCC3)c(C#N)c(=O)[nH]2)c1 [Molecule 6]", "HIGH"),
    ("CC1(C)CC(=O)C2=C(C1)OC1=C(C(=O)CC(C)(C)C1)C2c1ccc(O)cc1 [KU0194226]", "MEDIUM"),
    ("O=C1C(=Cc2ccncc2)Oc2c1ccc1c2CN(Cc2ccc3c(c2)OCO3)CO1 [KU0199357]", "LOW"),
    ("CCCCCCCCCCCC1SCC(C(=O)O)N1C(C)=O (centres unmarked) [Molecule 72]", "HIGH"),
    ("O=c1[nH]c2ccc([N+](=O)[O-])cc2c(-c2ccccc2)c1Sc1nc2ccccc2o1 [KU0067471]", "HIGH"),
    ("CCCCSc1nnc2c(n1)OC(c1ccc([N+](=O)[O-])o1)Nc1ccccc1-2 (centres unmarked) [KU0065811]", "LOW"),
    ("Cc1ccc(C2=N/C(=C\\c3ccc(I)o3)C(=O)O2)cc1[N+](=O)[O-] [KU0073890]", "HIGH"),
    ("O=C(O)c1ccc(-c2nc3cc(-c4ccc5nc(-c6ccc(C(=O)O)cc6)[nH]c5c4)ccc3[nH]2)cc1 [Molecule 1]", "LOW"),
    ("CCOc1nc2cccc(C(=O)OC(C)OC(=O)OC3CCCCC3)c2n1Cc1ccc(-c2ccccc2-c2nnn[nH]2)cc1 (centres unmarked) [Molecule 94]", "HIGH"),
    ("O=C(Nc1cccc(Cl)c1)Nc1nnc(-c2ccncc2)s1 [KU0022348]", "MEDIUM"),
    ("Oc1cccc2ccc(/C=C/c3ccc4c(c3)OCO4)nc12 [KU0025984]", "HIGH"),
    ("CCCCOC(=O)CCCCCN1C(=O)C(=Cc2ccc(OC)cc2)SC1=S [Molecule 75]", "HIGH"),
    ("O=C(Cn1ccc2c(=O)[nH]ccc21)Nc1cccc(Cl)c1 [Molecule 23, O=C(Cn1ccc2c1cc[nH]c2=O)Nc1cccc(c1)Cl]", "LOW"),
]
